Test: Cytotoxicity against golden hamster BSR cells assessed as reduction in cell viability incubated for 72 hrs followed by alamar blue addition further incubated for 6 hrs
Type: cell-based
Conditions: Mesocricetus auratus
Measured pIC50 of individual entries
As a rule, pIC50 stands for the negative log10 of the concentration, concentration in M.

As a guide, the following entries are already answered.
(Q) Which pIC50 reading was recorded for the compound Cc1ccccc1C(=O)CCn1ccnc1 ?
(A) 3.84

(Q) Look up pIC50: O=C(CCn1ccnc1)c1cccc([N+](=O)[O-])c1
(A) 3.75

Continuing:
(Q) Data request, read-out pIC50, for O=C(CCn1cnc2ccccc21)C12CC3CC(CC(C3)C1)C2
(A) 4.17

(Q) Query (compound): COc1cc(OC)cc(C(=O)CCn2cnc3ccccc32)c1 ; field requested: pIC50
(A) 4.15

(Q) Please report the recorded pIC50 for O=C(Cn1ccnc1[N+](=O)[O-])NCc1ccccc1 .
(A) 3.57

(Q) pIC50 lookup needed for O=C(CCn1ccnc1)c1ccc([N+](=O)[O-])cc1 , thanks.
(A) 4.03
